# protocol: total protein half-life in vivo (active degradation + dilution); higher = more stable protein
# conditions: wild type E. coli NCM3722; growth: C-lim chemostat; doubling time 12 h
Form field: total protein half-life in vivo (one value per entry).
Return type: number; implicit unit h.

MSTFKPLKTLTSRRQVLKAGLAALTLSGMSQAIAKDELLKTSNGHSKPKAKKSGGKRVVVLDPGHGGIDTGAIGRNGSKEKHVVLAIAKNVRSILRNHGIDARLTRSGDTFIPLYDRVEIAHKHGADLFMSIHADGFTNPKAAGASVFALSNRGASSAMAKYLSERENRADEVAGKKATDKDHLLQQVLFDLVQTDTIKNSLTLGSHILKKIKPVHKLHSRNTEQAAFVVLKSPSVPSVLVETSFITNPEEERLLGTAAFRQKIATAIAEGVISYFHWFDNQKAHSKKR ... 5
MNIRDLEYLVALAEHRHFRRAADSCHVSQPTLSGQIRKLEDELGVMLLERTSRKVLFTQAGMLLVDQARTVLREVKVLKEMASQQGETMSGPLHIGLIPTVGPYLLPHIIPMLHQTFPKLEMYLHEAQTHQLLAQLDSGKLDCVILALVKESEAFIEVPLFDEPMLLAIYEDHPWANRECVPMADLAGEKLLMLEDGHCLRDQAMGFCFEAGADEDTHFRATSLETLRNMVAAGSGITLLPALAVPPERKRDGVVYLPCIKPEPRRTIGLVYRPGSPLRSRYEQLAEAIRARMDGHFDKVLKQAV [P0ACQ4] ... 9.67

Moving on to another sequence below.
IN: Returns the measured total protein half-life in vivo for the input sequence. Input: MRVLLAPMEGVLDSLVRELLTEVNDYDLCITEFVRVVDQLLPVKVFHRICPELQNASRTPSGTLVRVQLLGQFPQWLAENAARAVELGSWGVDLNCGCPSKTVNGSGGGATLLKDPELIYQGAKAMREAVPAHLPVSVKVRLGWDSGEKKFEIADAVQQAGATELVVHGRTKEQGYRAEHIDWQAIGDIRQRLNIPVIANGEIWDWQSAQQCMAISGCDAVMIGRGALNIPNLSRVVKYNEPRMPWPEVVALLQKYTRLEKQGDTGLYHVARIKQWLSYLRKEYDEATELFQHVRVLNNSPDIARAIQAIDIEKL
OUT: 10.6

====

Form field: total protein half-life in vivo (one value per entry).
# protocol: total protein half-life in vivo (active degradation + dilution); higher = more stable protein
# conditions: wild type E. coli NCM3722; growth: N-lim chemostat; doubling time 6 h
Return type: number; implicit unit h.

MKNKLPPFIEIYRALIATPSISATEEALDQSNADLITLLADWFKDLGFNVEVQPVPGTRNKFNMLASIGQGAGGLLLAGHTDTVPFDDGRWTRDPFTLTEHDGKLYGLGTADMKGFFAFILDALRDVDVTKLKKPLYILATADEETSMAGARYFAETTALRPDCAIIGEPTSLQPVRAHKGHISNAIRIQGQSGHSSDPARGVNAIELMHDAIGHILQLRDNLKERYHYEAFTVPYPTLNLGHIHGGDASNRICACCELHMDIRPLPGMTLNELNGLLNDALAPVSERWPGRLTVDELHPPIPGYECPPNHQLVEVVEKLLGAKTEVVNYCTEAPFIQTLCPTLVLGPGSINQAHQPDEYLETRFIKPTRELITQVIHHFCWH ... 4.68

Moving on to another sequence below.
IN: Returns the measured total protein half-life in vivo for the input sequence. Input: MRYRIFLLFFFALLPTSLVWAAPAQRAFSDWQVTCNNQNFCVARNTGDHNGLVMTLSRSAGAHTDAVLRIERGGLKSPEASEGEIAPRLLLDGEPLALSGDKWRISPWLLVTDDTATITAFLQMIQEGKAITLRDGDQTISLSGLKAALLFIDAQQKRVGSETAWIKKGDEPPLSVPPAPALKEVAVVNPTPTPLSLEERNDLLDYGNWRMNGLRCSLDPLRREVNVTALTDDKALMMISCEAGAYNTIDLAWIVSRKKPLASRPVRLRLPFNNGQETNELELMNATFDEKSRELVTLAKGRGLSDCGIQARWRFDGQRFRLVRYAAEPTCDNWHGPDAWPTLWITR
OUT: 5.2
